Data provenance is patent US9492436B2.

# protocol-description: Aqueous solubility (buffer vs acetonitrile/water, 24 h shaking, LC-UV)
# Assay type: physicochemical
# condition: kinetic from dmso stock, pH 6.8 buffer, 2.5% DMSO, ">" = more than 90% dissolved
recorded-endpoint: solubility at 24 h (µg/mL)

(A) CS(=N)(=O)c1ccc(-c2ccc(-c3nc4[nH]c(O[C@@H]5CO[C@H]6[C@@H]5OC[C@H]6O)nc4cc3Cl)cc2)cc1 (stereo partly drawn)
(B) CS(C)(=O)=NCc1ccc(-c2ccc(-c3nc4[nH]c(O[C@@H]5CO[C@H]6[C@@H]5OC[C@H]6O)nc4cc3Cl)cc2)cn1
(C) CS(C)(=O)=Nc1ccc(-c2ccc(-c3nc4[nH]c(O[C@@H]5CO[C@H]6[C@@H]5OC[C@H]6O)nc4cc3Cl)cc2)nn1
Ask: Reorder: solubility at 24 h, max to min. Return the labels ranked in the requested order, please.
Reply: C, B, A
(C: 88 µg/mL, B: 2 µg/mL, A: 1 µg/mL)

----------
# protocol-description: Aqueous solubility (buffer vs acetonitrile/water, 24 h shaking, LC-UV)
# Format: physicochemical
# condition: kinetic from dmso stock, pH 6.8 buffer, 2.5% DMSO, ">" = more than 90% dissolved
# Description: The aqueous solubility of the compounds of the invention is determined by comparing the amount dissolved in buffer to the amount in an acetonitrile/water (1/1) solution. Starting from a 10 mM DMSO stock solution aliquots are diluted with acetonitrile/water (1/1) or buffer resp. After 24 h of shaking, the solutions are filtrated and analyzed by LC-UV. […] Solubility is usually being measured from 0.001 to 0.125 mg/ml at a DMSO concentration of 2.5%. […]
recorded-endpoint: solubility at 24 h

Example entries and their recorded answers appear below.
CS(=N)(=O)c1ccc(-c2ccc(-c3nc4[nH]c(O[C@@H]5CO[C@H]6[C@@H]5OC[C@H]6O)nc4cc3Cl)cc2)nc1 (some centres unmarked) [Example 27] = < 1 µg/mL
CN=S(C)(=O)c1ccc(-c2ccc(-c3nc4[nH]c(O[C@@H]5CO[C@H]6[C@@H]5OC[C@H]6O)nc4cc3Cl)cc2)cc1 (some centres unmarked) [Example 10] = < 1 µg/mL
CS(C)(=O)=Nc1cc(-c2ccc(-c3nc4[nH]c(O[C@@H]5CO[C@H]6[C@@H]5OC[C@H]6O)nc4cc3Cl)cc2)ccn1 [Example 36] = < 1 µg/mL
CN=S(C)(=O)c1ccc(-c2ccc(-c3nc4[nH]c(O[C@@H]5CO[C@H]6[C@@H]5OC[C@H]6O)nc4cc3Cl)cc2)nc1 (some centres unmarked) [Example 28] = < 1 µg/mL
CS(C)(=O)=Nc1ccc(-c2ccc(-c3nc4[nH]c(O[C@@H]5CO[C@H]6[C@@H]5OC[C@H]6O)nc4cc3Cl)cc2)cc1 [Example 2] = 1 µg/mL
CS(C)(=O)=Nc1cnc(-c2ccc(-c3nc4[nH]c(O[C@@H]5CO[C@H]6[C@@H]5OC[C@H]6O)nc4cc3Cl)cc2)nc1 [Example 34] = 13 µg/mL
CS(C)(=O)=NCC1CCN(c2ccc(-c3nc4[nH]c(O[C@@H]5CO[C@H]6[C@@H]5OC[C@H]6O)nc4cc3Cl)cc2)CC1 [Example 31] = 89 µg/mL

Please turn your attention to the following entry.
Ask: Could you tell me which solubility at 24 h is on file for CS(C)(=O)=NCc1ccc(-c2ccc(-c3nc4[nH]c(O[C@@H]5CO[C@H]6[C@@H]5OC[C@H]6O)nc4cc3Cl)cc2)cc1 [Example 45] ?
Reply: < 1 µg/mL
